Reported GI50 values are given for each entry in this list.
System: COLO 205
Test: NCI tumour cell line growth inhibition, 48 h
The source made the active and inactive calls. Cut-off read from the data, not from the text of the source: active = GI50 up to about 1.1 µM and inactive = higher.

Previously resolved entries follow.
INSERT INTO results (compound, value) VALUES
  ('Cc1cc(/N=C/c2ccc(C#N)cc2)n(-c2ccccc2)n1', '31.3 µM (inactive)'),
  ('CC1(C)[C@H]2CC[C@@]13C(=O)N1C(=O)O[C@@H]([C@H]1Cl)C(Cl)(COCc1ccccc1)C(=O)OCCO[C@H]3C2 (stereo not given in full)', '18 µM (inactive)'),
  ('CC(Oc1ccc2c(-c3ccccc3)cc(=O)oc2c1)C(=O)O (stereo not given)', '> 100 µM (inactive)'),
  ('COc1ccc(OC)c(C(=O)c2cccc(C(=O)c3cc(OC)ccc3OC)n2)c1', '32.1 µM (inactive)');

With those in mind, consider the next compound.
Give COLO 205 GI50 for the following compound: C[C@]1(CO)CCC[C@@]2(C)C1CC[C@H]1CC3C[C@]12CC[C@]3(C)O (stereo not given in full)
36.4 µM (inactive)

* * *

Test system: K562
Assay: NCI tumour cell line growth inhibition, 48 h
Active and inactive are the calls of the source. Rule as the data show it: active = GI50 up to about 1.1 µM and inactive = higher.
Mark one answer only. Choices: Yes = active, No = inactive

Before answering, review these 3 worked examples.
INSERT INTO measurements (compound, class) VALUES
  ('Cc1cc2c(cc1O)CC[C@@H]1[C@@H]2CC[C@]2(C)[C@@H](O)CC[C@@H]12', 'No'),
  ('O=C(Cn1ccnc1[N+](=O)[O-])NCCO', 'No'),
  ('O=C1c2ccccc2C(=O)c2c(NC(=O)C(Cl)CCl)cccc21 (centres undefined)', 'Yes');

Here is another compound to look at.
How was `Cn1c(/C=C/CO)c(CO)c2c1C(=O)C=C(N1CC1)C2=O` classified in this test?
Yes

* * *

Tested on: HOP-92
Experiment: NCI tumour cell line growth inhibition, 48 h
The source made the active and inactive calls. Cut-off read from the data, not from the text of the source: active = GI50 up to about 1.1 µM and inactive = higher.
Mark one answer only. Choices: T for active, F for inactive

INSERT INTO assay_data (compound, class) VALUES
  ('S=C(/C=C1\SC(=N\c2ccccc2)/C(=N/c2ccccc2)N1c1ccccc1)Nc1ccccc1', 'F');

How was Cc1ccc(C)c(N2C(=O)C(=O)C(c3nc4ccccc4o3)/C(=N\NC(=O)c3ccccc3O)C2=O)c1 (configuration not stated) classified in this test?
F

* * *

Tested on: EKVX
Assay: NCI tumour cell line growth inhibition, 48 h
Active and inactive are the calls of the source. Rule as the data show it: active = GI50 up to about 1.1 µM and inactive = higher.
experimental.readout: GI50

INSERT INTO measurements (compound, experimental_readout, value) VALUES
  ('O=C(/C=C/c1ccc(OCc2ccccc2)c(OCc2ccccc2)c1)OCc1ccccc1', 'GI50', '> 100 µM (inactive)'),
  ('CCN(CC)CCCNC(=O)Cc1ccccc1Nc1c(Cl)cccc1Cl', 'GI50', '13.7 µM (inactive)'),
  ('Cc1cc([N+](=O)[O-])c(C)c2c1[nH]c1ccc(Cl)cc12', 'GI50', '> 100 µM (inactive)'),
  ('NC(=O)CC(N/C=C1/N=C(c2ccccc2)OC1=O)C(=O)O (stereo not given)', 'GI50', '> 100 µM (inactive)');

With those in mind, consider the next compound.
Assign GI50 to the following record: `O=C(NCc1cccnc1)NCc1cccnc1`
> 100 µM (inactive)

* * *

Test system: SF-268
Assay: NCI tumour cell line growth inhibition, 48 h
Activity calls are given as the source filed them. No stated cut-off is given here; in the data, active = GI50 up to about 1.1 µM and inactive = higher.
experimental.readout: GI50

Assign GI50 to the following record: `N#Cc1c(Cl)nc2ccccc2c1N=[N+]=[N-]`
3.24 µM (inactive)

* * *

Reported GI50 values are given for each entry in this list.
Tested on: KM12
Test: NCI tumour cell line growth inhibition, 48 h
Active and inactive are the calls of the source. Rule as the data show it: active = GI50 up to about 1.1 µM and inactive = higher.

Previously resolved entries follow.
INSERT INTO results (molecule, experimental_readout, value) VALUES
  ('CCOC(=O)/C(C(=O)c1ccc[nH]1)=C1/CCCN1C', 'GI50', '> 100 µM (inactive)'),
  ('CCCCCCCCCCCCCCCCNc1ccn(C2CC(OP(=O)(O)OCC3OC(n4cc(CC)c(=O)[nH]c4=O)CC3O)C(CO)O2)c(=O)n1 (stereo unspecified)', 'GI50', '15.7 µM (inactive)'),
  ('Cc1cccc(NC2=NC(=O)C(CC(=O)Nc3ccc(Cl)cc3C)S2)c1 (stereo unspecified)', 'GI50', '> 100 µM (inactive)'),
  ('COc1ccc(/C(C)=N/NC(=S)N(C)C)c(O)c1', 'GI50', '4.92 µM (inactive)'),
  ('COC(=O)c1sc2c(=O)c(C(=O)OC)c(C(=O)OC)sc2c(=O)c1C(=O)OC', 'GI50', '> 100 µM (inactive)');

With those in mind, consider the next molecule.
Give KM12 GI50 for the following molecule: CC1=CCC2CC1NC(=O)CCOCCC(=O)NC2(C)C (stereo unspecified)
> 100 µM (inactive)

* * *

Reported GI50 values are given for each entry in this list.
Tested on: CAKI-1
Assay: NCI tumour cell line growth inhibition, 48 h
Activity calls are given as the source filed them. Rule as the data show it: active = GI50 up to about 1.1 µM and inactive = higher.

Previously resolved entries follow.
INSERT INTO measurements (compound, experimental_readout, value) VALUES
  ('CC1=NN(c2ccccc2)C(=O)C1/N=N/c1ccc(S(N)(=O)=O)cc1 (configuration not stated)', 'GI50', '> 100 µM (inactive)'),
  ('CO/N=C\c1cc(O)c(O)c(/C=N/OC)c1', 'GI50', '23.3 µM (inactive)'),
  ('O/N=N/c1ccc([SH2]c2ccc3ccccc3c2)cn1', 'GI50', '17.7 µM (inactive)');

Assign GI50 to the following record: CCOP(=O)(OCC)C(NC(=O)OCC(Cl)(Cl)Cl)n1nnc(C(=O)OC)c1C(=O)OC (configuration not stated)
> 100 µM (inactive)

Assign GI50 to the following record: CC(/C=C/C=C/C=C/C=C/C=C/C(=O)C1=C(O)C(CCC(=O)O)N(C)C1=O)=C\C(C)C(OC1CC(O)C(O)C(C)O1)C(C)C (configuration not stated)
3.5 µM (inactive)

* * *

Reported GI50 values are given for each entry in this list.
Tested on: COLO 205
Experiment: NCI tumour cell line growth inhibition, 48 h
The source made the active and inactive calls. No stated cut-off is given here; in the data, active = GI50 up to about 1.1 µM and inactive = higher.

INSERT INTO measurements (molecule, tested_system, value) VALUES
  ('CN(Cc1ccccc1)/C(=N\C#N)N(Cc1ccccc1)Cc1ccccc1', 'COLO 205', '19 µM (inactive)'),
  ('Nc1ccc(Nc2cc(=O)[nH]c(=O)[nH]2)cc1Cl', 'COLO 205', '> 100 µM (inactive)'),
  ('CCOc1ccc2nc(NC(=O)C(=O)C(C(=O)c3ccccc3-c3ccccc3)C3OC(=O)c4ccccc43)sc2c1 (centres undefined)', 'COLO 205', '19.4 µM (inactive)');

With those in mind, consider the next molecule.
Assign GI50 to the following record: CC(C)(C)c1cc(C(C)(C)C)c(P=C(Cl)Cl)c(C(C)(C)C)c1 (centres undefined)
> 100 µM (inactive)

* * *

System: SF-268
Experiment: NCI tumour cell line growth inhibition, 48 h
Active and inactive are the calls of the source. Rule as the data show it: active = GI50 up to about 1.1 µM and inactive = higher.
experimental.readout: GI50

INSERT INTO measurements (molecule, experimental_readout, value) VALUES
  ('O=C(/C=C/c1cccc(Oc2ccccc2)c1)NCc1ccc(C(=O)NCCc2ccccc2)cc1', 'GI50', '33.5 µM (inactive)'),
  ('NC(=O)CC(N/C=C1/N=C(c2ccccc2)OC1=O)C(=O)O (configuration not stated)', 'GI50', '> 100 µM (inactive)'),
  ('C=CC1(NS(=O)(=O)c2ccc(C)cc2)CCC(C(C)(C)C)CC1 (configuration not stated)', 'GI50', '27 µM (inactive)');

Assign GI50 to the following record: `O=[N+]([O-])c1ccc2nc(=S)[nH]n2c1`
> 100 µM (inactive)

Assign GI50 to the following record: `CC1CCN(CC(=O)N2c3ccccc3Sc3cc4ccccc4cc32)CC1`
> 100 µM (inactive)

Assign GI50 to the following record: `COC(=O)c1cc(-c2ccc(OC)c(OC)c2)oc1-c1ccc(OC)c(OC)c1`
49.7 µM (inactive)

Assign GI50 to the following record: `CCN(CC)CCNc1ccc2nnn3c4ccc(OC(C)=O)cc4c(=O)c1c23`
3.01 µM (inactive)

* * *

Tested on: HL-60
Assay: NCI tumour cell line growth inhibition, 48 h
Active and inactive are the calls of the source. Cut-off read from the data, not from the text of the source: active = GI50 up to about 1.1 µM and inactive = higher.
experimental.readout: GI50

Previously resolved entries follow.
INSERT INTO measurements (molecule, value) VALUES
  ('N#C/C(=C\c1ccc(F)cc1)c1nc(-c2cc3ccccc3oc2=O)cs1', '> 100 µM (inactive)'),
  ('COc1ccc(OC)c(C(=O)c2cccc(C(=O)c3cc(OC)ccc3OC)n2)c1', '18.5 µM (inactive)'),
  ('Cc1cc2nc3c(=O)n(C)c(=O)nc-3n(-c3ccc(Cl)cc3)c2cc1C', '3.34 µM (inactive)'),
  ('CC(=O)NCCC1CNc2ccccc21 (stereo not drawn)', '> 100 µM (inactive)'),
  ('Nc1nnc2n1C(=O)C(C1(C3=Nc4nnc(N)n4C3=O)Cc3ccccc3C1=O)=N2', '> 100 µM (inactive)'),
  ('CC(=O)OCc1cc(=O)n(C)c2c3c4c(cc12)c(C)cc(=O)n4CO3', '1.4 µM (inactive)'),
  ('CCN(CC)CC1CCCCN1CC(=O)N1c2ccccc2C(=O)Nc2cccnc21 (stereo not drawn) [OTENZEPAD]', '17.4 µM (inactive)'),
  ('Nc1ccn(C2CCC(CO)O2)c(=S)n1 (stereo not drawn)', '> 100 µM (inactive)'),
  ('Cc1ccc(/C=C2\N=C(N3CCOCC3)NC2=O)cc1', '> 100 µM (inactive)'),
  ('COc1cc2c[n+](C)c3c4cc(OC)c(OC)cc4c(OCCCCCCCCOc4cc5c6cc(OC)c(OC)cc6c[n+](C)c5c5cc(OC)c(OC)cc45)cc3c2cc1OC', '2.23 µM (inactive)');

Assign GI50 to the following record: Clc1ccc(COC(Cn2ccnc2)c2ccc(Cl)cc2Cl)c(Cl)c1 (stereo not drawn) [MICONAZOLE]
3.78 µM (inactive)

Assign GI50 to the following record: `O=[N+]([O-])c1ccc(C(c2c[nH]c3ccccc23)c2c[nH]c3ccccc23)cc1`
17.7 µM (inactive)

Assign GI50 to the following record: C/C(=N/O)C1CC=C(S(=O)(=O)c2ccccc2)C1 (stereo not drawn)
> 100 µM (inactive)
